# System: HCT116 cells
# TEST_PROTOCOL: Lactate dehydrogenase (LDH) release assay
# Format: cell-based
# Protocol: HCT116 cells were stably transfected with a p53 responsive β-lactamase reporter and expanded in McCoy’s 5 A Medium with 10% fetal bovine serum (FBS), Blasticidin, and Penicillin/Streptomycin and then transferred to 1.5 ml freezing vials and stored under liquid nitrogen in growth media containing 5% DMSO. […] Lactate dehydrogenase release was detected using the CytoTox-ONE Homogenous Membrane Integrity Assay Kit (Promega), as per the manufacturer’s instructions. […]
Positions of bridges follow the written chain, without caps; N, C: chain ends. Non-standard residues stand in square brackets, D forms with d. Residues, ends and D or L forms follow the SMILES beside them. 2Nal = N[C@@H](Cc1ccc2ccccc2c1)C(=O)O; tBuAla = CC(C)(C)C[C@H](N)C(=O)O; R8 = C=CCCCCCC[C@@](C)(N)C(=O)O; S5 = C=CCCC[C@](C)(N)C(=O)O
ATTRIBUTE_MEASURED: LDH: Cytotoxicity assay % Effect (%)
A number alone suffices; assume %.

# example entries with known answers
- COMPOUND: "CC(=O)N[C@H](C(=O)N[C@@H](CO)C(=O)N[C@@H](Cc1ccc2ccccc2c1)C(=O)N[C@]1(C)CCCCCCC=CCCC[C@@](C)(C(=O)N[C@@H](CO)C(=O)N[C@@H](C)C(=O)N[C@@H](C)C(=O)N[C@@H](CCC(=O)O)C(N)=O)NC(=O)[C@H](CC(C)C)NC(=O)[C@H](CC(C)C)NC(=O)[C@H](C)NC(=O)[C@H](Cc2c[nH]c3ccccc23)NC(=O)[C@H](Cc2ccc(O)cc2)NC(=O)[C@H](CCC(=O)O)NC1=O)[C@@H](C)O [MP-144] (Ac-TS[2Nal][R8]EYWALL[S5]SAAE-NH2; staple 4-11)"
  ATTRIBUTE_MEASURED: "LDH: Cytotoxicity assay % Effect"
  ENDPOINT_UNIT: "%"
  RECORDED_NUMBER: 83.26
- COMPOUND: "CC(=O)N[C@H](C(=O)N[C@@H](CO)C(=O)N[C@@H](Cc1ccc2ccccc2c1)C(=O)N[C@]1(C)CCCCCCC=CCCC[C@@](C)(C(N)=O)NC(=O)[C@H](CC(C)C)NC(=O)[C@H](CC(C)C)NC(=O)[C@H](C)NC(=O)[C@H](Cc2c[nH]c3ccccc23)NC(=O)[C@H](Cc2ccc(O)cc2)NC(=O)[C@H](CCC(=O)O)NC1=O)[C@@H](C)O [MP-145] (Ac-TS[2Nal][R8]EYWALL[S5]-NH2; staple 4-11)"
  ATTRIBUTE_MEASURED: "LDH: Cytotoxicity assay % Effect"
  ENDPOINT_UNIT: "%"
  RECORDED_NUMBER: 48.85
- COMPOUND: "CCCC[C@H](NC(=O)[C@H](CC(C)C)NC(=O)[C@H](C)NC(=O)[C@H](Cc1c[nH]c2ccccc12)NC(=O)[C@H](Cc1ccc(O)cc1)NC(=O)[C@H](CCC(=O)O)NC(=O)C(C)(C)NC(=O)[C@H](Cc1ccccc1)NC(=O)[C@H](CO)NC(=O)[C@@H](NC(C)=O)[C@@H](C)O)C(=O)NC(C)(C)C(N)=O"
  ATTRIBUTE_MEASURED: "LDH: Cytotoxicity assay % Effect"
  ENDPOINT_UNIT: "%"
  RECORDED_NUMBER: -1.482
- COMPOUND: "CC(=O)N[C@H](C(=O)N[C@@H](CO)C(=O)N[C@@H](Cc1ccccc1)C(=O)N[C@]1(C)CCCCCCC=CCCC[C@@](C)(C(=O)N[C@@H](CCC(=O)O)C(N)=O)NC(=O)[C@H](CC(C)C)NC(=O)[C@H](CC(C)C)NC(=O)[C@H](C)NC(=O)[C@H](Cc2c[nH]c3ccccc23)NC(=O)[C@H](Cc2ccc(O)cc2)NC(=O)[C@H](CCC(=O)O)NC1=O)[C@@H](C)O"
  ATTRIBUTE_MEASURED: "LDH: Cytotoxicity assay % Effect"
  ENDPOINT_UNIT: "%"
  RECORDED_NUMBER: 20.87

Pending compound:
The value of LDH: Cytotoxicity assay % Effect measured for the compound CC(=O)N[C@H](C(=O)N[C@@H](CO)C(=O)N[C@@H](Cc1ccccc1)C(=O)N[C@]1(C)CCCCCCC=CCCC[C@@](C)(C(=O)N[C@@H](CO)C(=O)N[C@@H](C)C(=O)N[C@@H](C)C(=O)N[C@@H](CCC(=O)O)C(N)=O)NC(=O)[C@H](CC(C)(C)C)NC(=O)[C@H](CC(C)C)NC(=O)[C@H](C)NC(=O)[C@H](Cc2c[nH]c3ccccc23)NC(=O)[C@H](Cc2ccc(O)cc2)NC(=O)[C@H](CCC(=O)O)NC1=O)[C@@H](C)O [MP-143] (Ac-TSF[R8]EYWAL[tBuAla][S5]SAAE-NH2; staple 4-11) turned out to be 5.215
